# ASSAYED SYSTEM: human PDE2A1 (Homo sapiens (Human), UniProt O00408)
# Sequence (O00408 other isoform, or with tags, fused parts or gaps): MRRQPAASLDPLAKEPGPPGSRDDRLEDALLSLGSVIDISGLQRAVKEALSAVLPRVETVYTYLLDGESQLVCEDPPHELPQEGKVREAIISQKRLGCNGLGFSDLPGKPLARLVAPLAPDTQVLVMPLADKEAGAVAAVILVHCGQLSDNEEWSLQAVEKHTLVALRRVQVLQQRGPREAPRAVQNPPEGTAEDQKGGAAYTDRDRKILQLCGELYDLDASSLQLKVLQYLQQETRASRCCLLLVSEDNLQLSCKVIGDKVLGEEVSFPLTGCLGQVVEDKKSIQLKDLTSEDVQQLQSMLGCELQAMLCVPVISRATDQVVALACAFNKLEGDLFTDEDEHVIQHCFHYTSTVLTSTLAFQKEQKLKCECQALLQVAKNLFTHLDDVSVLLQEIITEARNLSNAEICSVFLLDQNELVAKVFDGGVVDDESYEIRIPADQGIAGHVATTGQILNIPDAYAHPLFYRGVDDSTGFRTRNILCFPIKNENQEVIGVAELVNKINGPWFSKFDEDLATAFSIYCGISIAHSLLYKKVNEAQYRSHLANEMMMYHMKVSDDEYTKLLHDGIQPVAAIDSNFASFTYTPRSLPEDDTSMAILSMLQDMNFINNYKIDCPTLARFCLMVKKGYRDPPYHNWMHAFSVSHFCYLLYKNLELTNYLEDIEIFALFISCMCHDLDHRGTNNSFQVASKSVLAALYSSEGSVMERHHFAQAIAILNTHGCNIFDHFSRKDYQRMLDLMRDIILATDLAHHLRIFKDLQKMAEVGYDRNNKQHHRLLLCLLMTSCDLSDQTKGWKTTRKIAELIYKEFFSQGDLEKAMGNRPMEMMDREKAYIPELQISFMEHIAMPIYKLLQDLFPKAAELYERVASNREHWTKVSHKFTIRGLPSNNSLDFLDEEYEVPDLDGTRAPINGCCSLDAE
# PROTOCOL DETAILS: IMAP FP PDE selectivity panel, human PDE2A1
# Assay type: biochemical
# RECORDED CONDITIONS: Human PDE2, Lab B; read-out: Human PDE2 Ki (nM) - Lab B
Listing of entries alongside the reported Ki.
The answer is to be given in nM; state only the numeric part.

> print(dat)
                            chemical.smiles  value.measured
1  CC1([C@@H](NC(=O)c2cc(=O)[nH]c(-c3ccccc3)n2)c2ccc(OC(F)F)cc2)CC1             4.5
2  COc1ccc(Cc2nc(C(=O)N[C@@H](c3ccc(C(F)(F)F)c(F)c3)C(C)C)cc(=O)[nH]2)cc1F             1.8
3  Cc1nc(C(=O)N[C@@H](c2ccc(OC(F)(F)F)cc2)C2CC2)cc(=O)[nH]1              29

Look up Ki for this compound: Cc1nc(C(=O)N[C@@H](c2ccc(C(F)F)cc2)C2CC2)cc(=O)[nH]1 47

The measurements presented in this section are drawn from patent US9815796B2.
